Data credit: patent US11492335B2

Target: recombinant human VAP-1 (Homo sapiens, UniProt Q16853)
Construct: purchased R&D systems
Sequence (Q16853 whole entry): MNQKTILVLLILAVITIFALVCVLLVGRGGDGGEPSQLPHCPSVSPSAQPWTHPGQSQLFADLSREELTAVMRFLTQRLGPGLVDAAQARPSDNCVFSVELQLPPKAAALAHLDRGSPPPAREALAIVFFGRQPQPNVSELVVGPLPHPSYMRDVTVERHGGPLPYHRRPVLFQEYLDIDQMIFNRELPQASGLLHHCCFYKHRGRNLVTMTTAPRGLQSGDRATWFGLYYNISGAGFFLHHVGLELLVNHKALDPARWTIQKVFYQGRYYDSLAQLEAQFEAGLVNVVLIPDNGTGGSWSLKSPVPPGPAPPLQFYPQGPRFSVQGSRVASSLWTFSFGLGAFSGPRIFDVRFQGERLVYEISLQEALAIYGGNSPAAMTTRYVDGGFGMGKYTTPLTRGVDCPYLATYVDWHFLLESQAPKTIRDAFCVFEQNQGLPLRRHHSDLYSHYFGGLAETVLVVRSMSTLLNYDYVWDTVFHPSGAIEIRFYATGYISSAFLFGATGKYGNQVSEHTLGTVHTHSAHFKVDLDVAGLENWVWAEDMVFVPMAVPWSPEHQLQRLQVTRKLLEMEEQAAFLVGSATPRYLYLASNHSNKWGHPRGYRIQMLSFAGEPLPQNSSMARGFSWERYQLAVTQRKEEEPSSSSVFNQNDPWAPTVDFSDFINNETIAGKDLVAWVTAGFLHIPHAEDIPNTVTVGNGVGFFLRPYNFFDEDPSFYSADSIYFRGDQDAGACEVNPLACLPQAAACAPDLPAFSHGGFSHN
Assay: Activity on recombinant human VAP-1, Amplex Red HRP-coupled hydrogen peroxide assay, benzylamine substrate
Format: biochemical
Conditions: recombinant human VAP-1, benzylamine substrate, 30 min preincubation at 37° C.; read-out: Inhibitory Activity (IC50, nM) human VAP-1
Counter-ions that a name gives are not always drawn.
QUANTITY_KIND: IC50 (nM)

NC/C(=C/F)Cn1ncn(-c2nccs2)c1=O [Example 39, hydrochloride] ... 1.7
Cc1cc(-n2cnn(C/C(=C/F)CN)c2=O)cnc1-c1cccc(-c2nc[nH]n2)c1 ... 0.72
CC(=O)Nc1cc(-c2cccc(-n3cnn(C/C(=C\F)CN)c3=O)c2)ccn1 [Example 80, hydrochloride] ... 1.1
Cc1cc(-c2ccc(-c3ncon3)cc2)cnc1-n1cnn(C/C(=C/F)CN)c1=O ... 0.53
NC/C(=C\F)Cn1ncn(-c2cccc(Br)c2)c1=O [Example 4, hydrochloride] ... 1.2

I = COc1ncc(-c2cccc(-n3cnn(C/C(=C/F)CN)c3=O)c2)cc1C(F)(F)F [Example 87, hydrochloride]
II = NC/C(=C\F)Cn1ncn(-c2ccc(-c3ccc4c(c3)OCO4)cc2F)c1=O [Example 45, hydrochloride]
III = Cc1cc(Br)ncc1-n1cnn(C/C(=C/F)CN)c1=O [Example 28, hydrochloride]
IV = CS(=O)(=O)c1ccc(-c2ccc(-c3cccc(-n4cnn(C/C(=C/F)CN)c4=O)c3)cc2)cc1 [Example 66, hydrochloride]
V = NC/C(=C/F)Cn1ncn(-c2ccc(Br)c(F)c2)c1=O
Order the items by recorded IC50; the first position goes to the largest value. The reply should contain the labels ordered as requested.
III, V, I, IV, II
(III: 45 nM, V: 2.3 nM, I: 1 nM, IV: 0.66 nM, II: 0.21 nM)
